Tested on: MS2 coat protein
Assay: apparent KD of MS2 coat protein; higher = weaker reporter binding
Details: Eterna round: R107; input ligand: none
Please note: class 1 applies when apparent KD of MS2 coat protein is 60 nM or greater, and class 0 applies otherwise.

polymer_sequence	class_assignment
UACAGCAGUACGGCCGCCACUCUAAGAUUGCGCGUUUAGGCCAUACAUGAGGAUCACCCAUGUCCGAGGACCGGGUACAGGAAUU [theeternabot_sameState_MS2_Trp_B_29]	class 1
UGUAUGGACUGAAGGAGCGGGUAAUAAAUCUGAGGAUCACCCAGGUAAUAGGCGAAAGCCGCCCAGGUAGGUCGCAGUCCAUACU	class 0
ACCUGUACGAAAAGUGCAGGACAUGGAAAUCGAGGACCGGUACGGCCGCCACUCGUAUAAAACAAGUGGAUCACCCUUGUCCAUG [TrypAS 2 #AlternativeMS2 #Zipper #StaticStem]	class 1
ACAAGGACAUGAGGAUCACCCAUGUGGGAAGGAGCGCAUAAAUAUGCAGGUAGGUCGCCCGGCGUGAUAUUUAAUAUUUUAAUAA [Exclusion - Arginine A]	class 0
CCGGGCCCGGGCGACCGGGCCCGGACUGAAGGAGCGGGAAUAAACCCAGGUAGGUCGCAGAGAUCCACAUGAGGAUCACCCAUGU [!0.V]	class 0
GGCUGUCAUAGGAGGUGAAAUAUACUCGAAGGAGCGUCAUAGUAGGCAGGUAGGUCGCGAGACAUGAGGAUCACCCAUGUAGAGA [yyumullin]	class 0

====

Tested on: MS2 coat protein
Experiment: apparent KD of MS2 coat protein; designed switch direction (-1 OFF switch, 1 ON switch): 1; higher = weaker reporter binding
Settings: input ligand: microRNA oligo, concentration not stated
Property: apparent KD of MS2 coat protein; scope: individual sequences
assay_endpoint: apparent KD of MS2 coat protein (nM)

polymer_sequence	assay_endpoint	test_value
AUUGGGUAACGAGGAUAUCGUUUUUGUUUUCUUCGAGAAGGCGUUAUAGUUUAUUUCUAUUGUUACAUGAGGAUCACCCAUGUU [JR_SSNG1_Sub054] (Eterna round: R96, puzzle: Same State NG 1)	apparent KD of MS2 coat protein	16.5
GCUCCGCAAUACUUUCACAUGAGGAUCACCCAUGUUCACGUUAAGGAUAUCUAUUGUGAGACAGUAGAGAAGGUAGCGAGCGAC [Eternabot solution 11] (Eterna round: R96, puzzle: Same State NG 3)	apparent KD of MS2 coat protein	15.2
UAUUAAUCUGUAGGAUAUCUAGGAUAUGGACGAGGAUCACCCGAGCAGCAUCAGCGCACCAGAGGAGAGAAGGACGCUCUGGUG [pwkr ssNG2 2F5 2FMN.25] (Eterna round: R96, puzzle: Same State NG 2)	apparent KD of MS2 coat protein	93.7
UUAAUUUACUGAGGAUAUCGUGUCGACUGAGUUGACAUGAGGAUCACCCAUGUGAGAAGUGGUAUCGAGAAGGCAGUUUUCUUA [JR_SSNG2_Sub025] (Eterna round: R96, puzzle: Same State NG 2)	apparent KD of MS2 coat protein	82
GCUAGAAUAAACGCCUACAUGAGGAUCACCCAUGUAUGUAGGCAGGAUAUCGUAUGCAAAGCAUACGAGAAGGGCCUUACUAGC [Mat - Same State NG 3 - JL Mod - D33] (Eterna round: R96, puzzle: Same State NG 3)	apparent KD of MS2 coat protein	27.7

====

Property: apparent KD of MS2 coat protein; scope: individual sequences
Test system: MS2 coat protein
Test: apparent KD of MS2 coat protein; designed switch direction (-1 OFF switch, 1 ON switch): 1; higher = weaker reporter binding
Conditions: Eterna round: R95; input ligand: FMN 200 uM

polymer_sequence	result_unit	apparent KD of MS2 coat protein
GGAGCCGGCACCGAGGAUAUUCAUAUUAAAACAUGAGGAUCACCCAUGUAGAGCAGAAGCUCUUGGGAGAAGGCGGAUCGGCUCG [Xeonanis - 27] (puzzle: Same State 2)	nM	28.4
GGAGAGAGAGCACAGGAUAUGCGAGGAGAGACAUGAGGAUCACCCAUGUAAGAGAGAGAGGAGAGGUAGAAGGGUGAGAGAGAGG [Altered State 2-21 - Jieux - Same State 2] (puzzle: Same State 2)	nM	150
GGCAUGCGGCGUACCGUAUGCUGGUAUGUACAUGAGGAUCACCCAUGUCAUGUACAGGCUUGUUGCUCGUCUUAUUG [JL-shm-2.41 JL mod] (puzzle: Sensor for hsa-mir-208a)	nM	137
UUUAGUAGCGGGCAGGAUAUGUAUUAAAAUACAUGAGGAUCACCCAUGUGCGGGUAUAACACCCGACAGAAGGGCCAAUCGCUAC [Laonerce - 8] (puzzle: Same State 2)	nM	22.3
CGACUAAAGUCACAGGAUAUACGCCGUACUACAUGAGGAUCACCCAUGUUCGGGACAGUCGCGGUGUAGAAGGGUGUGGGUCAAC [Errabeed] (puzzle: Same State 2)	nM	17.6
UAGUACAUGCUUUUUGUCUGUCUUAGAUAACAUGAGGAUCACCCAUGUAAGGUGAAAGUUAUAUAGUUUAUGAAUAU [JR_SHM208A_Sub058] (puzzle: Sensor for hsa-mir-208a)	nM	188
GUCCAACAUGAGGAUCACCCAUGUCGGGCGUGCACAGGAUAUCGCGCCGGGAAAGCCCAGCGAGAAGGGUGAUCGA [Atveinla] (puzzle: Same State 1)	nM	197
CGUAGGUGGCUGGAGGAUAUUCGAGUGGUAACAUGAGGAUCACCCAUGUGUCGCGCGGUACAUGAGGAGAAGGCUGGCGGCCUGC (puzzle: Same State 2)	nM	19.7
GGAGCCGGCACUGAGGAUAUUCAUAUUAAAACAUGAGGAUCACCCAUGUAGGCCAGAAGGCCUUGGGAGAAGGCGGGUCGGCCCG [Bibimoar - 3] (puzzle: Same State 2)	nM	27.2
UUUAGUUGCGGGCAGGAUAUGUAUUAAAAUACAUGAGGAUCACCCAUGUACGGGUAUAACACCCGACAGAAGGGCCAAUCGCGAC [Laonerce - 4] (puzzle: Same State 2)	nM	16.8
UGGCAACAUGAGGAUCACCCAUGUCAAACUAAUCGAGGAUAUGGGAACGAACAAGAGAAACUAGAAGGCGAACUUG [Altered State 1-11 - Jieux - Same State 1] (puzzle: Same State 1)	nM	122
GUAAUACAUGAGGAUCACCCAUGUCAAUGUAGUCGAGGAUAUGGGUAGCUAUGUGGCUUACUAGAAGGCGACGAGC [Same State 1 - Mod of Vinnie Teenbexe v.4] (puzzle: Same State 1)	nM	90.3
AGUCCAGCGAAAGCUGGACAAAAGCAUGUACAUGAGGAUCACCCAUGUUCAUGUACAAGCUUUUUGCUCGUCUUGAA [JL mod - D95 - 9] (puzzle: Sensor for hsa-mir-208a)	nM	313
AAUUAUUAACAUGAGGAUCACCCAUGUAUUUUUUGCUCGUCAUGUAUUAUUAUUAUUAUUAUUAUUAUUAUUAUUAA [my first RNA] (puzzle: Sensor for hsa-mir-208a version 2)	nM	26.8

====

Tested on: K4 kissing-loop RNA reporter;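 further: bound reporter read as fluorescence of individual clusters on recovered sequencing chips by microscopy, with normalized cluster intensities fitted with a binding model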
Experiment: apparent KD of K4 kissing-loop reporter; higher = weaker reporter binding
Settings: Eterna round: R107; input ligand: none
Property: apparent KD of K4 kissing-loop reporter; scope: individual sequences

polymer_sequence	apparent KD of K4 kissing-loop reporter [nM]
GCCUGUGCGCGAAGGAGCGCCGUGACAGGUUACUGCCUUGGGCAGUGAUGUUGCUCAAUCUGGCAGGUAGGUCGCGUGCACAGGC	201
UACUAUAGUGAUGUUAUAGAUAAAACAGAUACCAGUGUAACAUAACACCCUUGGCAGCUGAUAAGGGAAAGUAUAAAUGUGUAUU [AstrosSSTHe-A#2newdesignED]	199
UAGUCCGGGUGAUGGUCAUCACGUGGCGGGCGAGGACCGGUACGGCCGCCACUCGACUUUGCAGUGAUGUUGCAAACCGGACAAU [Exclusion - Tryptophan A (Freestyle 22)]	201
AGAACUGUCUGAGAUACCAGCCAAGGAGUGAUGUUCCGGCUCGACGAAACGUCGAGCCAUGGCCCUUGGCAGCUCAGACAGUUCA [Omei KL Theo B SS A v2]	195

====

System: MS2 coat protein
Assay: apparent KD of MS2 coat protein, switch ON state; designed switch direction (-1 OFF switch, 1 ON switch): -1; higher = weaker reporter binding
Details: FMN input: 0 or 200 uM; Eterna round: R93 (includes R88 designs)
assay_endpoint: apparent KD of MS2 coat protein (nM)

polymer_sequence	test_value
UUUAUGUGAGGAUAUCAGUAGUAAAAAAAUAAAAUUACUACUGAGAAGGCACAUGAGGAUCACCCAUGUGUCUC [EX4 350: Super Stable 50]	17.5
AAAAAACAUGAGGAUCACCCAUGUGAGGAUAUGCAAAAAAAAAAAAAAAAAUAAAAAAGCAGAAGGCACAAAAA [Sh'dynasty]	30.6
AAAAAACAUGAGGAUCACCCAUGUGAGGAUAUCCAAAACAAAAAAAAACAAAACAAAAGGAGAAGGCACAUAAA [Amethyst 54]	58.8
